Where do the numbers come from? From patent US11912701B2.

# experimental.system: MKK4 (Homo sapiens)
# Construct: S84/D399; host or cells: HEK-293
# Sequence (P45985 84-399): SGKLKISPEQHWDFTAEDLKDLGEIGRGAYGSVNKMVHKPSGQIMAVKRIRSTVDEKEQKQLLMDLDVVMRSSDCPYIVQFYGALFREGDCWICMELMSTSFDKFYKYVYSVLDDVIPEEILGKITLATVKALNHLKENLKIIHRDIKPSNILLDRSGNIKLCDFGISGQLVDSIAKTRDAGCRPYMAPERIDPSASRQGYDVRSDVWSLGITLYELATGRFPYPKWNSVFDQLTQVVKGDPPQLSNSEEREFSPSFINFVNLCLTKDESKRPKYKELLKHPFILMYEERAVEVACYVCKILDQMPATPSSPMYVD
# protocol.details: KINOMEscan competition binding assay, MKK4
# test.settings: residual percent of control binding (PoC) at 100 nM

| molecule | MKK4 [% Ctrl @ 100 nM |
| --- | --- |
| CCCS(=O)(=O)Nc1c(F)ccc(C(=O)c2c[nH]c3ncc(-c4cnc(Cl)cn4)cc23)c1F | +++ (PoC < 1) |
| O=C(c1ccc(F)c(NS(=O)(=O)CCC(F)(F)F)c1F)c1c[nH]c2ncc(-c3cnc(N4CCC4)nc3)cc12 | +++ (PoC < 1) |
| CCCS(=O)(=O)Nc1ccc(F)c(C(=O)c2c[nH]c3ncc(-c4ccc(OCC(O)CO)cc4Cl)cc23)c1F (stereo not drawn) | +++ (PoC < 1) |
| CCCS(=O)(=O)Nc1ccc(F)c(C(=O)c2c[nH]c3ncc(-c4ccc(OC)c(OC)c4)cc23)c1F | ++ (1 ≤ PoC < 3) |
| COc1ccc(-c2cnc3[nH]cc(C(=O)c4ccc(F)c(NS(=O)(=O)CCC(F)(F)F)c4F)c3c2)cn1 | +++ (PoC < 1) |
| O=C(c1cccc(NS(=O)(=O)Cc2ccccc2)c1F)c1c[nH]c2ncc(-c3cc4c(cc3Cl)OCCO4)cc12 | ++ (1 ≤ PoC < 3) |
| O=C(c1c(F)ccc(NS(=O)(=O)Cc2ccccc2)c1F)c1c[nH]c2ncc(-c3ccc(OCC(O)CO)cc3)cc12 (stereo not drawn) | +++ (PoC < 1) |
| CCCS(=O)(=O)Nc1c(F)ccc(C(=O)c2c[nH]c3ncc(-c4ccc(C(F)(F)F)nc4)cc23)c1F | +++ (PoC < 1) |
